- System: HCT-116 colon
- measurement-protocol: NCI-60 one-dose screen, 48 h
- study-conditions: 10 µM unless noted
This is part of a sample that, as a whole, favours compounds with a hit. Of some 83,000 tested, about 20% had one in any assay. Activity calls are given as the source filed them. The calls were made as follows: active = growth percent below 10; inactive = the rest.
Assign a class; possible classes are label 1 = active, label 0 = inactive

These recorded examples may help you get a feel for the data.
# compound-smiles, assayed-target, group-label
records = [
    ("N/C(=N\\N=C\\c1cc2ccccc2[nH]1)N/N=C/c1cc2ccccc2[nH]1", "HCT-116 colon", "label 0"),
    ("N/C(=N\\N=C\\c1cc2ccccc2s1)N/N=C/c1cc2ccccc2s1", "HCT-116 colon", "label 1"),
    ("COc1cc(CCNc2nc3cc(N)cc(N)c3nc2-c2ccccc2)cc(OC)c1", "HCT-116 colon", "label 1"),
]

**Query** How was Cc1nn(-c2ccccc2)c(N2CCOCC2)c1/C=N/N=c1\sc2ccccc2n1C classified in this test?
**Result** label 0
